assay-procedure: Cycloheximide Counterscreen for Small Molecule Inhibitors of Shiga Toxin; further: read at 38.3 µM for the half of the compounds with a filed dose
condition-label: cell reporter, cycloheximide protein synthesis inhibition counterscreen
In all, about 300,000 compounds went through this assay and about 37,000 (12%) were called active. No stated cut-off is given here; in the data, active means max response mostly above about 13% (no sharp cut-off); inactive means mostly below about 14%. The full list was thinned out, with actives kept by preference.
Possible outcomes: y = active, n = inactive

compound: O=C(N/N=C\c1ccc(Br)cc1)c1ccc(Cn2cccn2)o1
group-label: y

compound: O=C(c1ccccc1F)N(Cc1ccccc1)Cc1ccccc1
group-label: n

compound: COc1ccc2oc(=N)c(C(=O)Nc3ccc(Br)cc3)cc2c1
group-label: n

compound: CCCc1cc(C(=O)Nc2ccc(Cl)cn2)cs1
group-label: y

compound: COc1ccc(N2CCN(S(=O)(=O)c3ccc4c(c3)N(C(C)=O)CCO4)CC2)cc1
group-label: n

compound: COc1ccc(NC(=O)C(Br)C(C)C)cc1 (stereo not drawn)
group-label: n

compound: COc1ccc(C(=O)NC2CC2)cc1OC1CCN(Cc2cnn(C)c2)CC1
group-label: n

compound: COc1ccc(S(=O)(=O)Nc2ccc3oc(C)c(C(C)=O)c3c2)cc1
group-label: n

compound: O=C(O)CCCC(=O)Nc1ccc(Oc2cccc(C(F)(F)F)c2)nc1
group-label: n

compound: CCOc1ccc(C(C(=O)NC2CCCC2)N(C(=O)c2snc(C(N)=O)c2N)C2CCCC2)cc1 (stereo not drawn)
group-label: n

compound: CCCC(=O)N(CCN1CCOCC1)c1nc2ccc(OCC)cc2s1
group-label: n

compound: Cc1cccc(NC(=O)COC(=O)CCc2ccccc2)c1C
group-label: n

compound: COc1ccc(OC)c(CCNC(=O)c2nn(C)c3c2CS(=O)(=O)c2ccccc2-3)c1
group-label: n

compound: COc1ccc(NS(=O)(=O)c2ccc(NC(=O)c3ccc(N(C)S(C)(=O)=O)cc3)cc2)cc1
group-label: n

compound: Cc1c(C)c(C)c2[nH]c(=S)[nH]c2c1C
group-label: n

compound: Cc1cccc(N(C(=O)c2sc(C)nc2C)C(C(=O)NCC2CCCO2)c2ccccc2)c1 (stereo not drawn)
group-label: n

compound: COc1cccc(NC(=O)CN(C)CC(=O)Nc2ccc3c(c2)CCC3)c1
group-label: n

compound: CCCN1CCn2c3c(c4cc(Br)ccc42)CCCC31 (stereo not drawn)
group-label: y

compound: COC(=O)c1cc(NC2c3ccccc3C(=O)N2c2ccc(Cl)cn2)cc(C(=O)OC)c1 (stereo not drawn)
group-label: y

compound: Cc1c(Cl)c([N+](=O)[O-])nn1Cc1ccc(C(=O)N/N=C\c2cc(Cl)ccc2O)o1
group-label: n

compound: C=CCOc1cccc(CNCc2cccnc2)c1
group-label: n

compound: COc1ccc(C(C)NC(=O)C2CCCC2)cc1 (stereo not drawn)
group-label: n

compound: CCCCc1nc2cc(C(=O)N3CCCCC3CCO)ccc2o1 (stereo not drawn)
group-label: y

compound: Cc1ccc(NS(=O)(=O)c2ccc(-c3ccc(=O)[nH]n3)o2)c(C)c1
group-label: n

compound: CCCCC(CC)C(=O)Nc1ccc(Cl)cn1 (stereo not drawn)
group-label: n

compound: COc1c(C)cc(C(=O)C2CCCN(S(=O)(=O)c3c(C)noc3C)C2)cc1C (stereo not drawn)
group-label: n

compound: CCOc1ccc2nc(C(=O)N3CCCC(C)C3)sc2c1 (stereo not drawn)
group-label: y

compound: COc1ccc(NC(=O)c2c(C)oc3c2CCCC3)cc1
group-label: y

compound: CCCc1ccc(OCC(O)CN2CCN(CCO)CC2)cc1 (stereo not drawn)
group-label: n

compound: CCOc1ccc2nc(Nc3nc4ccc(NC(C)=O)cc4s3)sc2c1
group-label: n

compound: COC(=O)c1cc(NC(=O)c2nn(C)c(=O)c3ccccc23)cc(C(=O)OC)c1
group-label: n

compound: CCCc1cc(C(=O)Nc2ccc(C(=O)OC)cc2)cs1
group-label: y

compound: Cc1ccc(NC(=O)Nc2cccc(C(F)(F)F)c2)nc1
group-label: n

###

assay-procedure: Cycloheximide Counterscreen for Small Molecule Inhibitors of Shiga Toxin; further: read at 38.3 µM for the half of the compounds with a filed dose
condition-label: cell reporter, cycloheximide protein synthesis inhibition counterscreen; stronger effect = higher value
Among all 300,000 compounds or so, about 37,000 (12%) were called active. Many of the other results were omitted from the sample, so actives are more common in it than they were.
Quick reference for max response among some compounds

compound: Cc1ccccc1N1CCN(S(=O)(=O)c2ccc3ccccc3c2)CC1
unit-label: %
max response: -1.83
--
compound: Cc1ccc(/C=N/NC(=O)c2cc3ccccc3cc2O)o1
unit-label: %
max response: 19.4
--
compound: O=C(CCl)Nc1cccc(CP(=O)(c2ccccc2)c2ccccc2)c1
unit-label: %
max response: -1.7
--
compound: CC(C)(C)C1C/C(=C/c2ccco2)C(=O)/C(=C/c2ccco2)C1 (stereo not drawn)
unit-label: %
max response: 46.9
--
compound: CCOc1ccc(S(=O)(=O)NCCSc2ccccc2)cc1
unit-label: %
max response: -2.61
--
compound: O=C(N/N=C/c1cccnc1)c1cc2ccccc2cc1O
unit-label: %
max response: 35.6
--
compound: CCOc1ccc2nc(NCCNC(=O)C(C)(C)C)c(C)cc2c1
unit-label: %
max response: 3.67
--
compound: CC(C)(C)c1ccc(Oc2ccc(N)cc2)cc1
unit-label: %
max response: -11.7
--
compound: CCOC(=O)N1CCN(C(=O)c2ccccc2N(Cc2ccccc2)S(=O)(=O)c2ccc(OC)cc2)CC1
unit-label: %
max response: -5.35
--
compound: Nc1ccc(Oc2ccc(Cl)cc2)cc1
unit-label: %
max response: 10.9
--
compound: CNC(=O)/C(C#N)=C/c1c(F)cccc1Cl
unit-label: %
max response: 15.7
--
compound: Cc1cccn2c(=O)c3cc(C(=O)NCC4CCCO4)c(=N)n(Cc4ccc(F)cc4)c3nc12 (stereo not drawn)
unit-label: %
max response: -1.9
--
compound: COC(=O)C1=C(C)N(c2ccc(Br)cc2)C(=O)/C1=C\c1ccco1
unit-label: %
max response: 19.6

###

assay-procedure: Cycloheximide Counterscreen for Small Molecule Inhibitors of Shiga Toxin; further: read at 38.3 µM for the half of the compounds with a filed dose
condition-label: cell reporter, cycloheximide protein synthesis inhibition counterscreen
Out of some 300,000 compounds screened, about 37,000 (12%) were called active. Rule as the data show it: active = max response mostly above about 13% (no sharp cut-off); inactive = mostly below about 14%. For the sample, actives were picked, then their nearest neighbours and some compounds at random.
Outcomes: 1 (yes) for active, 0 (no) for inactive

smiles-string: Cc1ccc(OCC(=O)c2cc(C)n(Cc3ccco3)c2C)c([N+](=O)[O-])n1
group-label: 1 (yes)
//
smiles-string: Cc1cc(C(=O)COC(=O)CNC(=O)c2ccc(F)cc2)c(C)n1Cc1ccco1
group-label: 1 (yes)
//
smiles-string: COc1ccc(C)cc1-n1nnnc1SCC(=O)c1cc(C)n(Cc2ccco2)c1C
group-label: 0 (no)

###

assay-procedure: Cycloheximide Counterscreen for Small Molecule Inhibitors of Shiga Toxin; further: read at 38.3 µM for the half of the compounds with a filed dose
condition-label: cell reporter, cycloheximide protein synthesis inhibition counterscreen; stronger effect = higher value
The campaign covered roughly 300,000 compounds. About 37,000 (12%) were called active. The list comes from a sample in which actives are over-represented; it also holds close analogues and randomly drawn compounds.
molecules and their reported max response

molecule: O=C(COc1ccc(Cl)cc1)NCCSc1ccccc1
max response [%]: -2.45
//
molecule: O=C(Nc1ccc2c(c1)CCC2)c1cccc(S(=O)(=O)N2CCN(c3ccc(F)cc3)CC2)c1
max response [%]: 18.6
//
molecule: CC(=O)N1c2ccc(S(=O)(=O)N3CCC(C(=O)N4CCN(c5ccccc5)CC4)CC3)cc2CC1C (stereo unspecified)
max response [%]: -2.01
//
molecule: CCOC(=O)c1[nH]c2ccc(OC)cc2c1NC(=O)CCN1CCN(Cc2ccccc2)CC1
max response [%]: 2.39
//
molecule: Cc1cc(=O)[nH]c2nnnn12
max response [%]: 4.1
//
molecule: COC(=O)c1sccc1NC(=O)CCC1CCCC1
max response [%]: 11
//
molecule: CC(C)N(C(=O)CSc1nc(COc2ccccc2)nc2ccccc12)C(C)C
max response [%]: 9.79
//
molecule: CC(C(=O)Nc1ccc(O)c(C(=O)O)c1)N1C(=O)/C(=C/c2cccs2)SC1=S (stereo unspecified)
max response [%]: -1.39
//
molecule: Cc1cc(C)cc(C(=O)NC(CC(N)=O)c2ccc(N3CCC(N4CCCCC4)CC3)c([N+](=O)[O-])c2)c1 (stereo unspecified)
max response [%]: -1.84
//
molecule: CCNC(=O)N1c2ccccc2Sc2ccccc21
max response [%]: -0.857
//
molecule: CC1(C)OC(=O)N2CCc3ccccc3C21C (stereo unspecified)
max response [%]: -1.95

###

assay-procedure: Cycloheximide Counterscreen for Small Molecule Inhibitors of Shiga Toxin; further: read at 38.3 µM for the half of the compounds with a filed dose
condition-label: cell reporter, cycloheximide protein synthesis inhibition counterscreen; stronger effect = higher value
The campaign covered roughly 300,000 compounds. About 37,000 (12%) were called active. What follows is part of a selection rich in actives, with near analogues and random picks from the rest.
# max response listing for each entry below
parameter-measured: max response (%)

molecule: CN1CCN(c2cc3c(cc2F)c(=O)c(C(=O)O)cn3CCF)CC1
recorded-value: -3.38
--
molecule: Cc1cc(OCCCC(=O)NCCN2C(=O)S/C(=C\c3cccnc3)C2=O)ccc1Cl
recorded-value: -1.74
--
molecule: O=C(COC(=O)CNC(=O)c1ccccc1F)NCC(F)(F)F
recorded-value: -1.02
--
molecule: CC(C)c1ccc(N2CCN(C(=O)c3ccccc3NC(=O)/C=C(\C(=O)O)c3ccccc3)CC2)cc1
recorded-value: 24.6
--
molecule: O=S(=O)(c1ccc(Br)cc1)N1CCC(c2nc3ccccc3[nH]2)CC1
recorded-value: -3.07
--
molecule: O=C(/C=C/c1ccc(Cl)cc1Cl)c1cccnc1
recorded-value: 2.63
--
molecule: CC(=O)Nc1ccc(/C(C)=N/NC(=O)CN(c2ccccc2Br)S(C)(=O)=O)cc1
recorded-value: 8.32
--
molecule: O=c1oc2ccccc2c(NC2CCCCC2)c1NS(=O)(=O)c1ccc(Cl)cc1
recorded-value: -6.15
--
molecule: CC1CCc2c(sc3nc4n(c(=O)c23)CCS4)C1 (centres undefined)
recorded-value: 31.9
--
molecule: CC(=O)Nc1ccc(S(=O)(=O)N2CCN(C3CCCCCCC3)CC2)cc1
recorded-value: -5.2
--
molecule: CN(CC(=O)Nc1ccccc1[N+](=O)[O-])Cc1ccc(Br)cc1
recorded-value: 7.65
--
molecule: O=C(c1ccc[nH]c1=S)N1CCN(S(=O)(=O)c2ccc(Br)cc2Cl)CC1
recorded-value: -2.01
--
molecule: Cc1ccc(SCCSc2ncccn2)cc1
recorded-value: 44.5
--
molecule: O=S(=O)([N-]c1nc2ccccc2nc1-[n+]1ccc(Cc2ccccc2)cc1)c1ccc(Br)s1
recorded-value: 10.5
--
molecule: COc1ccccc1CCNC(=O)c1cnccn1
recorded-value: 12.4
--
molecule: Cc1nc(C)c(-c2nnc(-c3cccc(S(=O)(=O)N(C)C)c3)o2)cc1C(=O)NN
recorded-value: -1.43
--
molecule: CC(=O)Nc1ccc(N2C(=O)C3C4C=CC(CC4)C3C2=O)cc1 (centres undefined)
recorded-value: 3.43
--
molecule: COc1cccc(NS(=O)(=O)c2ccc(-c3coc(C)n3)cc2)c1
recorded-value: 15.9
--
molecule: O=C(Cc1ccccc1)Nc1c(Cl)ccc2nsnc12
recorded-value: -0.56
--
molecule: COc1cc(CNCc2ccc(OC)c3ccccc23)cc(OC)c1OC
recorded-value: -1.1
--
molecule: O=C(CCNS(=O)(=O)c1cccs1)N1CCN(c2ccc(F)cc2)CC1
recorded-value: -5.58
--
molecule: COc1ccccc1CCNS(=O)(=O)c1cn(C)nc1C
recorded-value: 1.23
--
molecule: COc1ccccc1CCNC(=O)c1c(C)nn(CC(C)C)c1Cl
recorded-value: 39
--
molecule: O=C(NCCc1nnc2ccc(SCC(=O)N3CCOCC3)nn12)c1ccccc1
recorded-value: -4.07
--
molecule: O=C(CCc1ccc(S(=O)(=O)NC2CCCCC2)cc1)NCc1ccccc1
recorded-value: -1.16
--
molecule: O=C(Cn1nc(C(F)(F)F)c2c1CCC2)NCc1ccc(F)cc1
recorded-value: 0.318
--
molecule: Cc1cc(C)n(CCC(=O)N2CCN(S(=O)(=O)c3ccc(C)c(C)c3)CC2)n1
recorded-value: -4.77
--
molecule: O=C(CNC(=O)c1ccccc1F)c1ccc(Br)cc1
recorded-value: 57.7
--
molecule: O=C(CNC(=O)c1ccc(F)cc1)c1ccccc1
recorded-value: 30
--
molecule: CCOC(=O)c1c(CN(C)C)n(-c2ccccc2)c2cc(Br)c(O)cc12
recorded-value: -1.63
--
molecule: O=S(=O)(NCc1cccnc1)c1ccc(Br)s1
recorded-value: -6.09
--
molecule: Cc1ccc(SCCC(=O)NCc2ccccn2)cc1
recorded-value: -2.86
--
molecule: O=C(Cc1ccc(F)cc1)NC1CCCC1
recorded-value: 5.3
--
molecule: O=C(CN(c1cc(C(F)(F)F)ccc1Cl)S(=O)(=O)c1ccccc1)NCc1cccnc1
recorded-value: -4.73
--
molecule: Cc1cc(=O)oc2c3c(cc(OCC(=O)NCc4ccccn4)c12)OC(C)(C)CC3
recorded-value: -2.86
--
molecule: CCOC(=O)c1sc(C)c2c1NC(C)(c1cccc3ccccc13)NC2=O (centres undefined)
recorded-value: 0.788
--
molecule: CCOc1ccccc1NC(=O)COc1ccc(S(=O)(=O)N2CCCC2)cc1
recorded-value: -2.13
--
molecule: C=C(C)CNC(=S)Nc1ccc(S(=O)(=O)Nc2cnc3ccccc3n2)cc1
recorded-value: -1.53
--
molecule: COc1cc(NC(=O)C2CCN(c3cnccn3)CC2)cc(OC)c1
recorded-value: -1.38
